We begin with a simple list: items and their reported Number of pine trees showing wilt symptoms only at growing points of a stem.
# Tested on: Bursaphelenchus xylophilus
# PROCEDURE TEXT: Occurrence of pine wilt disease after trunk injection of induced resistance candidate materials, in vivo test in young red pine trees
# RUN PARAMETERS: red pine tree (Pinus densiflora), trunk injection, 200 µg/mℓ, 30 days after inoculation

Sample answers from the record:
CC(N)CC(=O)O (racemic): 2
O=C(O)CCCCCCCC(=O)O: 2
C=CCOC1=NS(=O)(=O)c2ccccc21: 1

Problem: Could you tell me which Number of pine trees showing wilt symptoms only at growing points of a stem is on file for "OCC1=C[C@@H](N[C@H]2C[C@H](CO)[C@@H](O[C@H]3O[C@@H](CO)[C@H](O)[C@@H](O)[C@@H]3O)[C@H](O)[C@H]2O)[C@H](O)[C@@H](O)[C@@H]1O" ?
Result: 1

All figures here come from patent EP3685668B1.
